# System: LOX IMVI melanoma
# protocolNotes: NCI-60 one-dose screen, 48 h
# assayContext: 10 µM unless noted
About 83,000 compounds went through this panel and 20% of them were active in at least one assay; those are over-represented in the sample as a whole. Activity calls are given as the source filed them. Rule for the calls: active = growth percent below 10; inactive = the rest.
Classes used: Y for active, N for inactive

# compound, category
measured = [
    ("Cc1nc(N)sc1C(=O)NCCO", "N"),
    ("COc1cc2ncnc(-n3ncc4cc(NC(=O)Nc5ccc(Cl)c(Cl)c5)ccc43)c2cc1OC", "Y"),
    ("O=c1oc2ccc3ccccc3c2cc1-c1ccnc2[nH]c(=S)[nH]c(=O)c12", "N"),
    ("C=CN(C)S(C)(=O)=O", "N"),
    ("Nc1nc2cc(O)ccc2n2cc3c(F)cccc3c12", "N"),
    ("CC(C)(C)OC(=O)N1C/C(=C\\c2ccccc2)C(=O)/C(=C/c2ccccc2)C1", "N"),
    ("Cc1ccc(S(=O)(=O)NC(CCC(=O)Nc2ccccc2)C(=O)Nc2ccccc2)cc1 (stereo not drawn)", "Y"),
    ("CC(=O)OC1/C=C\\CC/C=C\\C1 (stereo not drawn)", "N"),
]

Each recorded value in this set is attributed to PubChem BioAssay (NCI).
